test_target: T1, TNFR1 (Homo sapiens, UniProt P19438)
T1 chain: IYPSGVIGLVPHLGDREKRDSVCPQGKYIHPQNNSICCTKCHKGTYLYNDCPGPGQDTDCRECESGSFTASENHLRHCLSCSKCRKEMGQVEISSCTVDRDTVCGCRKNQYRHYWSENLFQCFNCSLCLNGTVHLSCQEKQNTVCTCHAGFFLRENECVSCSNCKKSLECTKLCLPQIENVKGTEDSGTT
test_name: yeast display SC50
So basically: apparent Kd (screen) at 2 nM or higher? That is Y. Lower than 2 nM? That is N.

| binder | class_assignment |
| --- | --- |
| D32C (designed binder) SMEEEVEKAAKEYEKKKKEAIEKHLEKLKAKCKEAAERFLKELEEAAKEYAKDEAKTMSEEEAKRRAKKYKEKVLLSELSEEEQKEIKEAEEKLVRTILKYVEEAAK | Y |
| K93Y (designed binder) SMEEEVEKAAKEYEKKKKEAIEKHLEKLKAKDKEAAERFLKELEEAAKEYAKDEAKTMSEEEAKRRAKKYKEKVLLSELSEEEQKEIKEAEEYLVRTILKYVEEAAK | Y |
| E54M (designed binder) SMEEEVEKAAKEYEKKKKEAIEKHLEKLKAKDKEAAERFLKELEEAAKEYAKDMAKTMSEEEAKRRAKKYKEKVLLSELSEEEQKEIKEAEEKLVRTILKYVEEAAK | Y |
| A55K (designed binder) SMEEEVEKAAKEYEKKKKEAIEKHLEKLKAKDKEAAERFLKELEEAAKEYAKDEKKTMSEEEAKRRAKKYKEKVLLSELSEEEQKEIKEAEEKLVRTILKYVEEAAK | Y |
| E86Q (designed binder) SMEEEVEKAAKEYEKKKKEAIEKHLEKLKAKDKEAAERFLKELEEAAKEYAKDEAKTMSEEEAKRRAKKYKEKVLLSELSEEEQKQIKEAEEKLVRTILKYVEEAAK | N |
| E62L (designed binder) SMEEEVEKAAKEYEKKKKEAIEKHLEKLKAKDKEAAERFLKELEEAAKEYAKDEAKTMSEELAKRRAKKYKEKVLLSELSEEEQKEIKEAEEKLVRTILKYVEEAAK | N |

Input: Say whether K71H (designed binder) SMEEEVEKAAKEYEKKKKEAIEKHLEKLKAKDKEAAERFLKELEEAAKEYAKDEAKTMSEEEAKRRAKKYHEKVLLSELSEEEQKEIKEAEEKLVRTILKYVEEAAK shows apparent Kd (screen) of 2 nM or more.
Output: N

Input: Entry E78M (designed binder) SMEEEVEKAAKEYEKKKKEAIEKHLEKLKAKDKEAAERFLKELEEAAKEYAKDEAKTMSEEEAKRRAKKYKEKVLLSMLSEEEQKEIKEAEEKLVRTILKYVEEAAK : is its apparent Kd (screen) no less than 2 nM?
Output: N
